target: Recombinant Human 5′-Nucleotidase (CD73) (Homo sapiens, UniProt P21589); construct: CHO derived CD73 (Trp27-Lys547), with a C-terminal 6-His tag; 6-His (C); experiment: CD73 Enzyme Assay; settings: 0.5 nM human CD73, 30 μM AMP, PiColorLock phosphate detection, OD 635 nm; read-out: Potency (IC50)
pIC50: −log10 of the molar value.
measure_name: pIC50

Any idea what pIC50 was measured for CN(c1nc(Cl)nc2cc([C@@H]3O[C@H](COP(=O)(O)CP(=O)(O)O)[C@@H](O)[C@@H]3F)ccc12)C1CCCC1 ?
6.00 to 7.00

Further cases:
For O=P(O)(O)CP(=O)(O)OC[C@H]1O[C@@H](c2ccc3c(NCc4ccccc4)nc(C4CC4)nc3c2)[C@H](O)[C@@H]1O , what is its reported pIC50?
7.00 to 8.00

And then O=P(O)(O)CP(=O)(O)OC[C@H]1O[C@@H](c2ccc3c(NC4CCCC4)nc(C4CC4)nc3c2)[C@H](O)[C@@H]1O , what is it?
7.00 to 8.00

# repeat for O=P(O)(O)CP(=O)(O)OC[C@H]1O[C@@H](c2ccc3c(NCC4CCC(O)CC4)nc(Cl)nc3c2)[C@H](O)[C@@H]1O (some centres unmarked)
7.00 to 8.00

// repeat for O=P(O)(O)CP(=O)(O)OC[C@H]1O[C@@H](c2ccc3c(NC4CCCC4)nc(Cl)nc3c2)[C@H](O)[C@@H]1O and report
> 8.00

Follow-up entry: O=P(O)(O)CP(=O)(O)OC[C@H]1O[C@@H](c2ccc3c(NCC4CCCC4)nc(Cl)nc3c2)[C@H](O)[C@@H]1O
7.00 to 8.00

Record: O=P(O)(O)CP(=O)(O)OC[C@H]1O[C@@H](c2ccc3c(NCC4CCCO4)nc(Cl)nc3c2)[C@H](O)[C@@H]1O (some centres unmarked)
7.00 to 8.00

Same again, this time with CN(c1ncnc2cc([C@@H]3O[C@H](COP(=O)(O)CP(=O)(O)O)[C@@H](O)[C@H]3O)ccc12)C1CCCC1
7.00 to 8.00

Moving on to O=P(O)(O)CP(=O)(O)OC[C@H]1O[C@@H](c2ccc3c(N4CCc5ccccc5C4)nc(Cl)nc3c2)[C@H](O)[C@@H]1O
7.00 to 8.00

Please answer likewise for COC1CCC(Nc2nc(Cl)nc3cc([C@@H]4O[C@H](COP(=O)(O)CP(=O)(O)O)[C@@H](O)[C@H]4O)ccc23)CC1 (some centres unmarked)
6.00 to 7.00

Check O=P(O)(O)CP(=O)(O)OC[C@H]1O[C@@H](c2ccc3c(NCC4CC(O)C4)nc(Cl)nc3c2)[C@H](O)[C@@H]1O (some centres unmarked) too.
7.00 to 8.00

What do you get for O=P(O)(O)CP(=O)(O)OC[C@H]1O[C@@H](c2cnc3c(NC4CCCC4)nc(Cl)nc3c2)[C@H](O)[C@@H]1O ?
7.00 to 8.00

Field entry: CN(c1nc(Cl)nc2cc([C@@H]3O[C@H](COP(=O)(O)CP(=O)(O)O)[C@@H](O)[C@H]3O)cnc12)C1CCCC1
7.00 to 8.00

Now consider O=P(O)(O)CP(=O)(O)OC[C@H]1O[C@@H](c2ccc3c(N4CCc5ccccc54)nc(Cl)nc3c2)[C@H](O)[C@@H]1O .
6.00 to 7.00

Field entry: O=P(O)(O)CP(=O)(O)OC[C@H]1O[C@H](c2ccc3c(NCc4ccccc4)nc(Cl)nc3c2)[C@@H](F)[C@@H]1O
< 6.00

# iterate: O=P(O)(O)CP(=O)(O)OC[C@H]1O[C@@H](c2ccc3c(NC4CCC(O)CC4)nc(Cl)nc3c2)[C@H](O)[C@@H]1O (some centres unmarked)
7.00 to 8.00

* * *

Recorded pIC50 by entry
Biological target: Cell surface CD73 of U87 MG human glioblastoma cells (Homo sapiens, UniProt P21589)
Construct: Cell surface CD73 catalyzes the conversion of adenosine monophosphate (AMP) to adenosine and inorganic phosphate; endogenous in cells
Sequence (P21589 27-549): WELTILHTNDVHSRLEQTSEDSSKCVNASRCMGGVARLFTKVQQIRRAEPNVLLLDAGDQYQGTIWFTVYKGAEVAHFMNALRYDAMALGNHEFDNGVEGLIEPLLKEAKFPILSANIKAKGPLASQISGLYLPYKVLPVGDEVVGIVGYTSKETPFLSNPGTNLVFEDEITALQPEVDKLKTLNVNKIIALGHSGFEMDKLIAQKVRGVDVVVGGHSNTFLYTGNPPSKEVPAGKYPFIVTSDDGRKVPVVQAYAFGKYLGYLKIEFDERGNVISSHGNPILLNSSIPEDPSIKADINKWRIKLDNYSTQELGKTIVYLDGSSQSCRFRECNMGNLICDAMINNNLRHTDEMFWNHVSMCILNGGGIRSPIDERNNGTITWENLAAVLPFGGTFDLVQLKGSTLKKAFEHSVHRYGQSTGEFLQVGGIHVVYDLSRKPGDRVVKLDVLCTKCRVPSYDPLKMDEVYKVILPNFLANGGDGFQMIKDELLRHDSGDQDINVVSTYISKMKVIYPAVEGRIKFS
Assay: CD73 Cellular Assay
Details: 5000 cells per well, 30 μM AMP, PiColorLock phosphate detection in supernatant, read-out: Potency (IC50)
pIC50: −log10 of the molar value.

Worked set:
Request body: readout pIC50, system Cell surface CD73 of U87 MG human glioblastoma cells (Homo sapiens, UniProt P21589), query O=P(O)(O)CP(=O)(O)OC[C@H]1O[C@@H](c2ccc3c(NCC4CCC4)nc(Cl)nc3c2)[C@H](O)[C@@H]1O [Compound 8] . Return the value.
> 8.00

Further, for O=P(O)(O)CP(=O)(O)OC[C@H]1O[C@@H](c2ccc3c(NC4CCOC4)nc(Cl)nc3c2)[C@H](O)[C@@H]1O (stereo partly drawn) [Compound 22] ?
> 8.00

New cases:
Missing value: pIC50, Cell surface CD73 of U87 MG human glioblastoma cells (Homo sapiens, UniProt P21589), entry O=P(O)(O)CP(=O)(O)OC[C@H]1O[C@@H](c2ccc3c(NCC4CCCC4)nc(Cl)nc3c2)[C@H](O)[C@@H]1O [Compound 5] . Fill in?
> 8.00

* * *

Recorded measurements of pIC50, one per entry
molecular target: Cell surface CD73 of U87 MG human glioblastoma cells (Homo sapiens); construct: Cell surface CD73 catalyzes the conversion of adenosine monophosphate (AMP) to adenosine and inorganic phosphate; endogenous in cells; assay: CD73 Cellular Assay; conditions: 5000 cells per well, 30 μM AMP, PiColorLock phosphate detection in supernatant, read-out: Potency (IC50)
pIC50: −log10 of the molar value.

Please review the following examples before continuing.
GET /values?readout=pIC50&system=Cell surface CD73 of U87 MG human glioblastoma cells (Homo sapiens)&item= O=P(O)(O)CP(=O)(O)OC[C@H]1O[C@@H](c2ccc3c(NCC4CCCO4)nc(Cl)nc3c2)[C@H](O)[C@@H]1O (stereo partly shown)
> 8.00

Repeat with O=P(O)(O)CP(=O)(O)OC[C@H]1O[C@@H](c2ccc3c(NCc4ccccc4Cl)nc(Cl)nc3c2)[C@H](O)[C@@H]1O
> 8.00

What do you have for CN(c1ncnc2cc([C@@H]3O[C@H](COP(=O)(O)CP(=O)(O)O)[C@@H](O)[C@H]3O)ccc12)C1CCCC1 ?
> 8.00

Shift focus to the following entry.
Identify the measured pIC50 of O=P(O)(O)CP(=O)(O)OC[C@H]1O[C@@H](c2ccc3c(NC4CCCC4)ncnc3c2)[C@H](O)[C@@H]1O for Cell surface CD73 of U87 MG human glioblastoma cells (Homo sapiens).
< 6.00

* * *

Quick reference for IC50 among some compounds
molecular target: Recombinant Human 5′-Nucleotidase (CD73) (Homo sapiens); construct: CHO derived CD73 (Trp27-Lys547), with a C-terminal 6-His tag; 6-His (C); test: CD73 Enzyme Assay; settings: 0.5 nM human CD73, 30 μM AMP, PiColorLock phosphate detection, OD 635 nm; read-out: Potency (IC50)

Below, each entry is followed by its recorded IC50 result.
Look up IC50: O=P(O)(O)CP(=O)(O)OC[C@H]1O[C@@H](c2ccc3c(NC4CCOC4)nc(Cl)nc3c2)[C@H](O)[C@@H]1O (stereo partly drawn)
< 10 nM

// next record O=P(O)(O)CP(=O)(O)OC[C@H]1O[C@@H](c2ccc3c(NCC4CC4)nc(Cl)nc3c2)[C@H](O)[C@@H]1O
10 to 99 nM

Let us now turn to O=P(O)(O)CP(=O)(O)OC[C@H]1O[C@@H](c2ccc3c(NCC4CCOC4)nc(Cl)nc3c2)[C@H](O)[C@@H]1O (stereo partly drawn)
10 to 99 nM

New cases:
I have this compound here, O=P(O)(O)CP(=O)(O)OC[C@H]1O[C@@H](c2ccc3c(NCCc4ccccc4)nc(Cl)nc3c2)[C@H](O)[C@@H]1O , and I need its recorded IC50.
10 to 99 nM

Try this compound too: O=P(O)(O)CP(=O)(O)OC[C@H]1O[C@@H](c2ccc3c(NCC4CCCC(O)C4)nc(Cl)nc3c2)[C@H](O)[C@@H]1O (stereo partly drawn)
< 10 nM

Moving on to O=P(O)(O)CP(=O)(O)OC[C@H]1O[C@@H](c2ccc3c(NCc4ccccc4)ncnc3c2)[C@@H](F)[C@@H]1O
> 1000 nM
